Origin of values: patent US20150051257A1

Test system: σ (non-selective)
Experiment: Radioligand binding assay, σ receptors
Conditions: test compound 1×10^−6M; [3H]DTG; rat cerebral cortex
property measured: σ [%] (%)
Numeric answer only, unit % assumed.

## Task Look up and state reported σ [%] for COc1cccc(CCNCc2cccc(NS(=O)(=O)c3ccc4ccccc4c3)c2)c1 [Compound 11]
## Result 76

## Task Look up and state reported σ [%] for O=S(=O)(Nc1cccc(CNCCc2cccc(O)c2)c1)c1ccc2ccccc2c1 [Compound 17]
## Result 71

## Task Look up and state reported σ [%] for Cc1cccc(CCNCc2cccc(NS(=O)(=O)c3ccc4ccccc4c3)c2)c1 [Compound 8]
## Result 85

## Task Look up and state reported σ [%] for O=S(=O)(Nc1cccc(CNCCOc2cccc3c2OCCO3)c1)c1ccc(I)cc1 [Compound 22]
## Result 95

## Task Look up and state reported σ [%] for O=S(=O)(Nc1cccc(CNCCc2ccccc2)c1)c1ccc2ccccc2c1 [Compound 1]
## Result 83

## Task Look up and state reported σ [%] for COc1ccc(CCNCc2cccc(NS(=O)(=O)c3ccc4ccccc4c3)c2)cc1 [Compound 14]
## Result 54

## Task Look up and state reported σ [%] for O=S(=O)(Nc1cccc(CNCCOc2cccc3[nH]ccc23)c1)c1cccc2ccccc12 [Compound 51]
## Result 76

## Task Look up and state reported σ [%] for Cc1cccc(S(=O)(=O)Nc2cccc(CNCCOc3cccc4[nH]ccc34)c2)c1 [Compound 49]
## Result 79

## Task Look up and state reported σ [%] for COc1ccccc1OCCNCc1cccc(NS(=O)(=O)c2ccc3ccccc3c2)c1 [Compound 10]
## Result 74

## Task Look up and state reported σ [%] for CN(CCCc1noc2cc(F)ccc12)Cc1cccc(NS(=O)(=O)c2ccc(I)cc2)c1 [Compound 68]
## Result 73

## Task Look up and state reported σ [%] for O=S(=O)(Nc1cccc(CNCCc2cccc(Cl)c2)c1)c1ccc2ccccc2c1 [Compound 6]
## Result 73

## Task Look up and state reported σ [%] for CN(CCCc1noc2cc(F)ccc12)Cc1cccc(NS(=O)(=O)c2ccc(C(C)(C)C)cc2)c1 [Compound 72]
## Result 80

## Task Look up and state reported σ [%] for O=S(=O)(Nc1cccc(CNCCOc2cccc3[nH]ccc23)c1)c1ccc2ccccc2c1 [Compound 52]
## Result 79
